B1: ATL3 (parent)
chain: QELEEEIKELYENFCKHNGSKNVF

- Variants of: B1
- protocol details: protein stability index of a GFP-peptide fusion (GPS, HEK-293T) (PSI 1-6); higher = more stable;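 also: lentivirally expressed fusions sorted by FACS into six bins by GFP to DsRed ratio, PSI derived from sequencing read proportions per bin multiplied by bin number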
- protocol conditions: c terminus: a fixed tail appended
// protein stability index lookup, one value per entry
measured attribute: protein stability index

• QELEEEIKELYENFCKHNGSKNVN [F24N] = 3.07
• QELEEEIKELYENFCKHNGSKNVM [F24M] = 3.06
• QELEEEIKELYENFCKHNGSKNGF [V23G] = 2.94
